# Test system: biotinyl-Phe-oxazolone
# PROTOCOL_TEXT: self-aminoacylation, catalytic enhancement (BFO) (fold over background); higher = more active; k-Seq, kA / k0A0; sequences stand for … in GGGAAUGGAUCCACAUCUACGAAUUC…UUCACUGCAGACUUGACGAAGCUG
Fewer inactive variants are shown than the library holds.
READOUT_NAME: self-aminoacylation
Enter the number alone.

>>> result_value("AUUACCCGGGUCACCGAGUGA [Fam2.1 aminoacylation ribozyme variant]")
145
>>> result_value("AAAUUUGCUAAUAGUCGUAAG [Fam3.1 aminoacylation ribozyme variant]")
10.3
>>> result_value("AUUACCCUGGUCAUCGUCUGA [Fam2.1 aminoacylation ribozyme variant]")
0.374

Next item in the queue.
Request: Using known records, supply self-aminoacylation for CUACCUCAAACACUCGGUCUG [Fam1A.1 aminoacylation ribozyme variant]
Result: 1.74

* * *

Measured self-aminoacylation, listed per entry for reference.
# Test system: biotinyl-Phe-oxazolone
# PROTOCOL_TEXT: self-aminoacylation, catalytic enhancement (BFO) (fold over background); higher = more active; k-Seq, kA / k0A0; sequences stand for … in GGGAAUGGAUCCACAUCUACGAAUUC…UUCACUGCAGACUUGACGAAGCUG
Fewer inactive variants are shown than the library holds.

Request: Using known records, supply self-aminoacylation for CAACUUAAAACAAUCGGUCUG [Fam1A.1 aminoacylation ribozyme variant]
Result: 1.71

Request: Using known records, supply self-aminoacylation for CUACUGCAAUCAAUCGGUCUG [Fam1A.1 aminoacylation ribozyme variant]
Result: 2.9

Request: Using known records, supply self-aminoacylation for AAGUAUGCUAAGAGUCGCAAG [Fam3.1 aminoacylation ribozyme variant]
Result: 4.08

Request: Using known records, supply self-aminoacylation for AUUCAUCUAGGUAAUCGGGUG [Fam2.2 aminoacylation ribozyme variant]
Result: 19.5

* * *

# System: biotinyl-Phe-oxazolone
# PROTOCOL_TEXT: self-aminoacylation, catalytic enhancement (BFO) (fold over background); higher = more active; k-Seq, kA / k0A0; sequences stand for … in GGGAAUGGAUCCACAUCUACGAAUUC…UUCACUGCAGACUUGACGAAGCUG
Variants at the floor of the assay were thinned out.
Measured self-aminoacylation, listed per entry for reference.
Enter the number alone.

Answered cases to consult:
>>> result_value("CCAGACUUCAAGCGAUCGGUC [Fam1B.1 aminoacylation ribozyme variant]")
1.63
>>> result_value("AAGUAUGCUAAUAGUCGAAAG [Fam3.1 aminoacylation ribozyme variant]")
15.7
>>> result_value("AAGUUUGCGAAUGGUCGCAAG [Fam3.1 aminoacylation ribozyme variant]")
5.78
>>> result_value("CGACUACAAACAAUCGGUCUG [Fam1A.1 aminoacylation ribozyme variant]")
2.44
>>> result_value("AUUCACCUAGGUCAUACGGUG [Fam2.2 aminoacylation ribozyme variant]")
55.7

Request: Using known records, supply self-aminoacylation for AUAACCCUGGUCAACGAGUGA [Fam2.1 aminoacylation ribozyme variant]
Result: 31.1

Request: Using known records, supply self-aminoacylation for CUACUUCAAACAAUCAGACUG [Fam1A.1 aminoacylation ribozyme variant]
Result: 8.24

Request: Using known records, supply self-aminoacylation for AUUACCCUGGUCAACGAGUGA [Fam2.1 aminoacylation ribozyme variant]
Result: 22.4

Request: Using known records, supply self-aminoacylation for CUACUUCAAACUAUCGGUCUA [Fam1A.1 aminoacylation ribozyme variant]
Result: 1.08
